B1: Hairpin Ribozyme (parent)
chain: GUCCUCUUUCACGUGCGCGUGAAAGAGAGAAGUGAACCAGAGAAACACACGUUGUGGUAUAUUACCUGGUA

- Variants of: B1
- Assay Protocol: self-cleavage, relative activity (ratio to wild type); higher = more cleavage; co-transcriptional
Quantity Name: self-cleavage
The response must contain the number and no unit.

A selection of reference data follows.
For the variant "GUCCUUUUUCACGUGCGCGUGAAAGAGAGACGUGAACCAGAGAAACACACGUUGUGGUAUAUUACCUGGUA" , what self-cleavage is on record?
0.0728

For the variant "GUGCUAUUUCACGUGCGCGUGAAAGAGAGAAGUGAACCAGAGAAACACACGUUGUGGUAUAUUACCUGGUA" , what self-cleavage is on record?
0.267

For the variant "GUCCUCUUUCACGUGCGCGUGAAAGAAAGAAGUGAACCAGAGAAACACACGUUGUGGUAUAUUACCGGGUA" , what self-cleavage is on record?
0.175

For the variant "GUCCUCUGUCACGUGCGCGUGAAAGAGAGAAGUGAACCAGAGAAACACGCGUUGUGGUAUAUUACCUGGUA" , what self-cleavage is on record?
0.264

Moving on to the next variant.
For the variant "GUCCUCUGUCACGUGCGCGUGAAAGAGAGAAGUGAACCAGAGAAACACACGUUGUGGUAUAUUAUCUGGUA" , what self-cleavage is on record?
0.363
